Molecular target: Opioid receptors; mu & delta (Homo sapiens) (UniProt P41143+P35372)
Sequence (P35372 whole entry, looked up): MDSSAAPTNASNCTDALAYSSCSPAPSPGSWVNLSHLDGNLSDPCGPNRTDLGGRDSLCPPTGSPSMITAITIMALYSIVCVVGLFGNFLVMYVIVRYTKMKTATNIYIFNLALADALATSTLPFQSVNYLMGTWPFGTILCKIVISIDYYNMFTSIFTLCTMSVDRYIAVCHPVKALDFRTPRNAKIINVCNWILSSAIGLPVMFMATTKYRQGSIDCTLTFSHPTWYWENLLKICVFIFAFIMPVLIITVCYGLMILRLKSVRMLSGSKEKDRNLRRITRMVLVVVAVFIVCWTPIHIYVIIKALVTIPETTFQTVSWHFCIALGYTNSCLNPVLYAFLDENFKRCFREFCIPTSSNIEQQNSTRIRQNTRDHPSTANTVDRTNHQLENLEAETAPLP
Sequence (P41143 whole entry, looked up): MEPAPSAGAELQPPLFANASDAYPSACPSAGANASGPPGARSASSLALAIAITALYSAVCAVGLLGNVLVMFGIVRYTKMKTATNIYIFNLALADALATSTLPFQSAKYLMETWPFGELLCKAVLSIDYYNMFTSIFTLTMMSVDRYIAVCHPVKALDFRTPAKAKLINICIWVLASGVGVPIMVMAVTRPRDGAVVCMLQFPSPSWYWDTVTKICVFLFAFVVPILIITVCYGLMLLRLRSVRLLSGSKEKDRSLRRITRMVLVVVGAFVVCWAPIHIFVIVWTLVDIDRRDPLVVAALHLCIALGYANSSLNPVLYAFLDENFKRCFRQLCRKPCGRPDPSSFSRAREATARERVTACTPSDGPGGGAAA
Test: Relative binding affinity to mu and delta opioid receptors
Format: protein assay
# Lookup of reported Mu/delta ratio keyed by entry

>>> observed("C=CCN1C[C@H](C)N([C@H](c2ccc(C(=O)N(CCC)CCC)cc2)c2cccc(OC)c2)C[C@H]1C")
811
>>> observed("C=CCN1C[C@H](C)N([C@H](c2ccc(C(=O)N(C)CC)cc2)c2cccc(OC)c2)C[C@H]1C")
1510
>>> observed("C=CCN1C[C@H](C)N([C@H](c2ccc(C(=O)N(CC)CCCC)cc2)c2cccc(OC)c2)C[C@H]1C")
327
>>> observed("C=CCN1C[C@H](C)N([C@H](c2ccc(C(=O)N3CCCCC3)cc2)c2cccc(OC)c2)C[C@H]1C")
158
>>> observed("C=CCN1C[C@H](C)N([C@H](c2ccc(C(=O)N(C)C)cc2)c2cccc(OC)c2)C[C@H]1C")
540

Q: Returns the measured Mu/delta ratio for the input compound. Input: C=CCN1C[C@H](C)N([C@H](c2ccc(C(=O)N3CCCCCC3)cc2)c2cccc(OC)c2)C[C@H]1C
Ans: 344

Q: Proceed to C=CCN1C[C@H](C)N([C@H](c2ccc(C(=O)N(C(C)C)C(C)C)cc2)c2cccc(OC)c2)C[C@H]1C
Ans: 1370

Q: What about C=CCN1C[C@H](C)N([C@H](c2ccc(C(=O)N3CCCC3)cc2)c2cccc(OC)c2)C[C@H]1C ?
Ans: 233
